Measured pKi values are reported for all entries that follow.
Target: Sigma-1 receptor (Cavia porcellus)
Assay: Binding affinity for sigma receptor in guinea pig brain membrane using radiolabeled ligand [3H]-(+)-SKF- 10,047 was determined
Just so you know, pKi here is -log10 of the concentration in molar units; reply with that number alone.

Worked cases, answers included:
INSERT INTO assay_data (compound, recorded_metric, reported) VALUES
  ('CN1CCC2(CC1)OC=C(c1ccc(F)cc1)C2=O', 'pKi', 5.40),
  ('O=C1C=C(c2ccccc2)OC12CCCN(Cc1ccccc1)C2 (centres undefined)', 'pKi', 5.34),
  ('CCN(CC)CCC1(C)OC=C(c2ccccc2)C1=O (centres undefined)', 'pKi', 8.05);

Here is another compound to look at.
[in] Look up pKi: `O=C1C=C(c2ccccc2)OC12CCNCC2`
[out] 6.34

----------
Measured Ki values are reported for all entries that follow.
Assay: Binding affinity for dopamine receptor D2 in guinea pig striatal membrane using radiolabeled ligand [3H]spiperone
The response must be a number in µM with no trailing unit.

[in] Look up Ki: `CN1CCC2(CC1)OC=C(c1ccc(F)cc1)C2=O`
[out] 2.6

[in] Look up Ki: `O=C1C(c2ccc(F)cc2)=COC12CCN(Cc1ccccc1)CC2`
[out] 1.42

[in] Look up Ki: `Cc1cc(CN2CCC3(CC2)OC=C(c2ccccc2)C3=O)on1`
[out] 32

[in] Look up Ki: `O=C1C(c2ccccc2)=COC12CCN(Cc1cccc(Cl)c1)CC2`
[out] 2.11

[in] Look up Ki: `C=CCN1CCC2(CC1)OC=C(c1ccccc1)C2=O`
[out] 4.87

[in] Look up Ki: `COc1ccc(C2=COC3(CCN(CCc4ccccc4)CC3)C2=O)cc1`
[out] 2.07

[in] Look up Ki: `O=C1C=C(c2ccccc2)OC12CCN(CCc1ccccc1)CC2`
[out] 7.18

[in] Look up Ki: `O=C1C=C(c2ccc(F)cc2)OC12CCN(CCc1ccccc1)CC2`
[out] 5.32

----------
Measured pKi values are reported for all entries that follow.
Biological target: Sigma-1 receptor (Cavia porcellus)
Experiment: Binding affinity for sigma receptor in guinea pig brain membrane using radiolabeled ligand [3H]-(+)-SKF- 10,047 was determined
Just so you know, pKi here is -log10 of the concentration in molar units; reply with that number alone.

Worked cases, answers included:
INSERT INTO results (compound, test_system, reported) VALUES
  ('CN1CCC2(CC1)OC(c1ccccc1)=CC2=O', 'Sigma-1 receptor (Cavia porcellus)', 6.53),
  ('O=C1C(c2ccccc2)=COC12CCCN(Cc1ccccc1)C2 (centres undefined)', 'Sigma-1 receptor (Cavia porcellus)', 6.16),
  ('CN1CCC2(CC1)OC(C)(c1ccccc1)CC2=O (centres undefined)', 'Sigma-1 receptor (Cavia porcellus)', 6.67),
  ('O=C1C(c2ccc(F)cc2)=COC12CCN(CC1CCCCC1)CC2', 'Sigma-1 receptor (Cavia porcellus)', 8.70),
  ('O=C1C(c2ccc(F)cc2)=COC12CCN(CCc1ccccc1)CC2', 'Sigma-1 receptor (Cavia porcellus)', 7.62);

[in] Look up pKi: `O=C1C(c2ccccc2)=COC12CCN(Cc1cccc(Cl)c1)CC2`
[out] 6.63

[in] Look up pKi: `O=C1C(c2ccc3ccccc3c2)=COC12CCN(CCc1ccccc1)CC2`
[out] 7.46

[in] Look up pKi: `O=C1C(c2ccccc2)=COC12CCN(CC1CCCCC1)CC2`
[out] 9.00
